concentration at 2 h overview
- assay explanation: in vivo
- protocol conditions: rat, plasma, po, 10 mg/kg
- Description: Plasma concentration in rat at 10 mg/kg, po after 2 hrs

>  <smiles repr>
O=C1O[C@]2(CC[C@H](C(=O)Nc3cnc(-c4ccccc4)cn3)CC2)c2cccnc21

>  <concentration at 2 h (µM)>
3.75

$$$$
>  <smiles repr>
O=C1O[C@]2(CC[C@H](C(=O)Nc3cnn(-c4ccccc4)c3)CC2)c2cccnc21

>  <concentration at 2 h (µM)>
6.68

$$$$
>  <smiles repr>
O=C1O[C@]2(CC[C@H](C(=O)Nc3ccn(-c4ccccc4)n3)CC2)c2cccnc21

>  <concentration at 2 h (µM)>
6.46

$$$$
>  <smiles repr>
O=C1O[C@]2(CC[C@H](C(=O)Nc3cc(-c4ccccc4)on3)CC2)c2cnccc21

>  <concentration at 2 h (µM)>
0.29

$$$$
>  <smiles repr>
O=C1O[C@]2(CC[C@H](C(=O)Nc3ccn(-c4ccccc4F)n3)CC2)c2cnccc21

>  <concentration at 2 h (µM)>
1.59

$$$$
